Test system: P388 leukemia ip, CD2F1 mice, survival T/C
Assay: NCI In Vivo Anticancer Drug Screen. Data for tumor model P388 Leukemia (intraperitoneal) in CD2F1 (CDF1) mice
Details: endpoint: median survival time; dose: 200.0 mg/kg/injection; schedule: Q01DX009 (ip); vehicle: saline with Tween-80; higher = longer survival
Toxic doses and inconclusive results are not listed.
Some compounds, each annotated with its measured T/C.

>  <COMPOUND>
NN1C(=O)CCC1=O

>  <T/C>
92 % of control

$$$$

Param request: T/C | system P388 leukemia ip, CD2F1 mice, survival T/C | item "Cc1ccc(NNC2=NC(=S)NC(=O)C2)cc1"
104 % of control

Return reported T/C for target or system P388 leukemia ip, CD2F1 mice, survival T/C, item Cc1cc(C(C)CC(=O)O)c(C)c(C)c1C (stereo unspecified) .
108 % of control

Under P388 leukemia ip, CD2F1 mice, survival T/C: report T/C of CCCC(C)C1(CC)C(=O)N(CCCl)C(=O)N(CCCl)C1=O (stereo unspecified) .
93 % of control

Given "O=[N+]([O-])c1ccc(S(=O)(=O)/N=C/c2ccccc2)cc1" , report its T/C on P388 leukemia ip, CD2F1 mice, survival T/C.
95 % of control

Give the observed T/C of "O=C(Nc1ccccc1)Nc1ccc(OCc2ccccc2)cc1" for P388 leukemia ip, CD2F1 mice, survival T/C.
114 % of control

Answer with T/C of "Cc1cccc(Oc2cnc(=O)[nH]c2)c1" measured for P388 leukemia ip, CD2F1 mice, survival T/C.
99 % of control

Report value only: T/C, P388 leukemia ip, CD2F1 mice, survival T/C, "CCCCn1c(O)c(/C=C2/C=Nc3ccccc32)sc1=O"
97 % of control

Under P388 leukemia ip, CD2F1 mice, survival T/C: report T/C of CC1(C)CC2(OC2c2ccc([N+](=O)[O-])cc2)C(=O)c2ccccc21 (stereo unspecified) .
95 % of control

GET T/C | system: P388 leukemia ip, CD2F1 mice, survival T/C | item: "CC1(C)CC(OC(=O)c2c3ccccc3c3ccc4cccc5ccc2c3c54)CC(C)(C)N1O"
90 % of control

For P388 leukemia ip, CD2F1 mice, survival T/C, give the measured T/C of the entry CCOCC1COc2c(cc3[nH]cc(C(=O)OCC)c(=O)c3c2Cl)O1 (stereo unspecified) (tested in a mixture with another compound)
101 % of control

Please report T/C with P388 leukemia ip, CD2F1 mice, survival T/C for item CC(=O)N1C2=CCCC3CCCCC23c2ccccc21 (stereo unspecified) .
89 % of control

Give P388 leukemia ip, CD2F1 mice, survival T/C T/C for the following compound: "CS/C(=N/N=C(\C)c1ccccn1)[Se][Se]/C(=N/N=C(\C)c1ccccn1)SC"
93 % of control

Give T/C for this entry on P388 leukemia ip, CD2F1 mice, survival T/C: CCOC(=O)CCC(NC(=O)c1ccc(N(C)CCC(C)=O)cc1)C(=O)OCC (stereo unspecified)
102 % of control

For P388 leukemia ip, CD2F1 mice, survival T/C, give the measured T/C of the entry COC(=O)C1=C(C(=O)OC)C2C=CC1C1C(Cl)C(Cl)C21 (stereo unspecified)
90 % of control

Return reported T/C for target or system P388 leukemia ip, CD2F1 mice, survival T/C, item "CN(C(=S)Nc1ccccc1)c1nnn(C)n1" .
107 % of control
